Could you please report measured cell viability for the items listed next?
# Test system: U2OS
# METHOD_NOTES: cell viability relative to DMSO; higher = less toxic
# CONDITION_DESCRIPTION: 72 h; 10 nM
Give bare numbers, in %.

CCOC(=O)C(=O)Nc1cccc(OC)c1C(N)=O ... 98.9
CCCCOc1cc(C(=O)NCCN(CC)CC)c2ccccc2n1 ... 98.2
C[S+](CC[C@H](N)C(=O)O)C[C@H]1O[C@@H](n2cnc3c(N)ncnc32)[C@H](O)[C@@H]1O (stereo not given in full) ... 97.9
CN(CCOP(=O)(O)O)C(=N)N [creatinol-phosphate] ... 95.6
C[C@H](Cc1ccc(OCC(=O)O)cc1)NC[C@H](O)c1cccc(Cl)c1 ... 93.3
Cc1cc(C)n(-c2cccc([C@H](CC(=O)O)CN3CC[C@@H](CCc4ccc5c(n4)NCCC5)C3)c2)n1 ... 95.6
COc1ccc([C@]2(C#N)CC[C@@H](C(=O)O)CC2)cc1OC1CCCC1 ... 97.4
CC(C)C[C@@H](NC(=O)[C@H](C)NC(=O)CNC(=O)[C@@H](NC=O)C(C)C)C(=O)N[C@@H](C)C(=O)N[C@@H](C(=O)N[C@H](C(=O)N[C@@H](C(=O)N[C@@H](Cc1c[nH]c2ccccc12)C(=O)N[C@H](CC(C)C)C(=O)N[C@@H](Cc1c[nH]c2ccccc12)C(=O)N[C@H](CC(C)C)C(=O)N[C@@H](Cc1c[nH]c2ccccc12)C(=O)N[C@H](CC(C)C)C(=O)N[C@@H](Cc1c[nH]c2ccccc12)C(=O)NCCO)C(C)C)C(C)C)C(C)C ... 94.3

Items follow; give cell viability for each.
1. CO[C@H]1[C@H](O)[C@@H](O)[C@@H](O)[C@H](O)[C@@H]1O
2. CCO[C@@H](Cc1ccc(OCCc2ccc(OS(C)(=O)=O)cc2)cc1)C(=O)O

Result:
1. 97.5
2. 95.9

Items follow; give cell viability for each.
1. O=C(NOCC1CC1)c1ccc(F)c(F)c1Nc1ccc(I)cc1Cl
2. CCC(CC)Nc1nc(C)c(-c2ccc(OC(F)(F)F)cc2OC)nc1OC
3. COc1cc(COc2cc(N)c(Cl)cc2C(=O)CCC2CCN(CCNS(C)(=O)=O)CC2)cc(OC)c1

Result:
97.1
98.5
96.2

Items follow; give cell viability for each.
1. C[C@@H]1NC(C)(C)CO[C@@]1(O)c1cccc(Cl)c1
2. Oc1ccc2c3c1O[C@H]1c4[nH]c5c(c4C[C@@]4(O)[C@@H](C2)N(CC2CC2)CC[C@]314)C[C@@]1(O)[C@H]2Cc3ccc(O)c4c3[C@@]1(CCN2CC1CC1)[C@H]5O4

Result:
[103, 109]

====

Could you please report measured cell viability for the items listed next?
# Tested on: Calu-3
# METHOD_NOTES: cell viability relative to DMSO; higher = less toxic
# CONDITION_DESCRIPTION: 72 h; 1000 nM
Answers are plain numbers, in %.

C=CC[C@]1(O)CC[C@H]2[C@@H]3CCC4=CCCC[C@@H]4[C@H]3CC[C@@]21C ... 104

Items follow; give cell viability for each.
1. CCC1(c2ccccc2)C(=O)N(COC)C(=O)N(COC)C1=O
2. C[C@]12CCC(=O)C=C1CC[C@@H]1[C@@H]2CC[C@@]2(C)[C@H]1CC[C@]2(C)O
3. C=C[C@@H]1C[C@]1(NC(=O)[C@@H]1C[C@@H](Oc2ncc(OC)c3ccc(Cl)cc23)CN1C(=O)[C@@H](NC(=O)OC(C)(C)C)C(C)(C)C)C(=O)NS(=O)(=O)C1CC1
4. Cc1cnc(-c2cc(N3CCN(C(=O)CCS(C)(=O)=O)CC3)ncc2Cl)c(C)c1
5. COC(=O)CCc1ccc(OCC(O)CNC(C)C)cc1 (configuration not stated)
6. CC(Cc1ccc(O)cc1)NCC(O)c1cc(O)cc(O)c1 (configuration not stated)
7. Cc1cn2nc([C@@H]3CCCCN3C(=O)c3cc(Cl)ccc3NS(C)(=O)=O)cc2nc1N1CC[C@H](N)C1
8. C[S+](CC[C@H](N)C(=O)O)C[C@H]1O[C@@H](n2cnc3c(N)ncnc32)[C@H](O)[C@@H]1O (some centres not stated)

Result:
1: 88.5; 2: 106; 3: 101; 4: 110; 5: 105; 6: 95.9; 7: 94; 8: 99.8

Items follow; give cell viability for each.
1. C/C=C/C=C/C(=O)O
2. COc1ccc(-c2ccc3cc(C(=O)O)ccc3c2)cc1C12CC3CC(CC(C3)C1)C2
3. CCN1CCN(c2ccc(Nc3cc(N(C)C(=O)Nc4c(Cl)c(OC)cc(OC)c4Cl)ncn3)cc2)CC1
4. COC(=O)Nc1nc2cc(SC(C)C)ccc2[nH]1
5. CCCS(=O)(=O)Nc1ccc(F)c(C(=O)c2c[nH]c3ncc(Cl)cc23)c1F

Result:
1: 91.3; 2: 101; 3: 99.4; 4: 81.6; 5: 106

Items follow; give cell viability for each.
1. COc1cc2c(=O)c(-c3ccc(O)cc3)coc2cc1O
2. C#C[C@]1(OC(C)=O)CC[C@H]2[C@@H]3CCC4=CC(=O)CC[C@@H]4[C@H]3CC[C@@]21C [norethindrone-acetate]
3. O=C(Oc1ccc(Br)cc1)N1CCN2CCC1CC2

Result:
[101, 104, 100]

Items follow; give cell viability for each.
1. CCCc1c(OCCCOc2ccc(OCC(=O)O)cc2)ccc(C(C)=O)c1O
2. CC(=O)CC/C=C(\C)CC/C=C(\C)CC/C=C(\C)CCC=C(C)C
3. Cc1ccc(-c2nn(C(C)(C)CNC(=O)c3ncccc3C)c3ncnc(N)c23)cc1
4. O=C(Nc1c[nH]nc1-c1nc2ccc(CN3CCOCC3)cc2[nH]1)NC1CC1
5. CCCCOc1cc(C(=O)NCCN(CC)CC)c2ccccc2n1

Result:
1: 101; 2: 95.5; 3: 97.8; 4: 65.4; 5: 94.3
